System: SW-620 colon
Form entry, call: pick from active, inactive

Write down the call the test reported for this compound. Item: COC1CC2C=C(C)/C=C/C=C/C(=O)NC(c3ccccc3)C/C=C/CCC(O)CC(=O)C2=C1O (centres undefined)
active

Write down the call the test reported for this compound. Item: "Cc1nc2sc(C(=O)Nc3cccc4ccccc34)c(N)c2cc1C(=O)c1ccccc1"
inactive

Write down the call the test reported for this compound. Item: "CC1(C)OC(=O)C=C([O-])O1.CC1(C)OC(=O)C=C([O-])O1.O=S(=O)([O-])c1ccc([O-])c2ncccc12.O=S(=O)([O-])c1ccc([O-])c2ncccc12.[Ti+4]"
inactive

Write down the call the test reported for this compound. Item: "COc1ccccc1NC(=O)n1nc(N)c2ccccc21"
inactive
